Data origin, for the record: PubChem BioAssay (NCI)

- System: T-47D breast
- Procedure summary: NCI-60 one-dose screen, 48 h
- Condition notes: 10 µM unless noted
Compounds without any hit were thinned out: in the full panel of roughly 83,000, 20% have a hit. Active and inactive are the calls of the source. How the source made its calls: active means growth percent below 10; inactive means the rest.
Select the matching outcome among yes = active, no = inactive

{"Molecule": "O=C(/C=C/c1cccc(Cl)c1)c1cccc(OCCCCOc2cccc(C(=O)/C=C/c3cccc(Cl)c3)c2)c1", "Classification": "no"}
{"Molecule": "COc1cc(-c2nc(SCCC(C)C)nc(N3CCOCC3)c2C#N)cc(OC)c1OC", "Classification": "no"}
{"Molecule": "CCN(CC)CCOc1nc2c3ccc(Cl)cc3nn2c2ccccc12", "Classification": "no"}
{"Molecule": "N#Cc1nc(-c2ccc(F)cc2)oc1S(=O)(=O)N1CCN(c2ccc(F)cc2)CC1", "Classification": "no"}
{"Molecule": "CCOC(=O)/C=C/c1c(C)[nH]c(=O)[nH]c1=O", "Classification": "no"}

Exam item: Hi team, can someone confirm the assay call for Cc1nc2sc(C(=O)Nc3cccc(Cl)c3)c(N)c2cc1C(O)c1ccccc1 (centres undefined) ?
Marked response: no

Exam item: Given COc1ccc2[nH]cc(-c3nc(-c4cn(C)c5ccncc45)cs3)c2c1 , state the outcome it received in this test.
Marked response: no

Exam item: Test call, this molecule: Cn1c(O)c(C(/C=C/c2ccccc2)=Nc2ccccc2N)c(=O)n(C)c1=O
Marked response: no

Exam item: Which outcome was assigned to Clc1ccc(-c2nc(-c3c[nH]c4ncccc34)cs2)cc1 in this test?
Marked response: no

Exam item: Check the results log: what was the call for CC/C(Cc1ccccc1)=C(\c1ccc(OCCN2CCCCCC2)cc1)c1ccc(OC(=O)NCc2ccccc2)cc1 ?
Marked response: no

Exam item: Returns: the outcome recorded for N=C(N)c1ccc(-c2ccc(-c3ccc(Cl)cc3)o2)o1 in this assay.
Marked response: no

Exam item: Entry CC1(C)CC[C@]2(C(=O)N3CCOCC3)CC[C@]3(C)C(=CC[C@@H]4[C@@]5(C)C/C(=C/c6ccncc6)C(=O)C(C)(C)[C@@H]5CC[C@]43C)[C@@H]2C1 : call = ?
Marked response: no

Exam item: Hey, what did the test say about CC[C@H](Nc1nc(N)nc(C)c1C#N)c1nc2cccc(NCCCCCC(=O)NO)c2c(=O)n1-c1ccccc1 ?
Marked response: yes
